experiment: Cytotoxicity against mouse splenocytes assessed as cell viability at 0.3 ug/ml after 88 hrs by MTT assay; type: cell-based, Splenocyte; settings: read-out: Activity
measured-attribute: viability at 88 h, 0.3 ug/ml (%)
Reply numerically in %, unit not repeated.

Request: Consider the compound shown here: `O=C(O)c1cc(Br)c(Br)[nH]1` What is its recorded viability at 88 h, 0.3 ug/ml?
Result: 100

* * *

assay: Cytotoxicity against mouse splenocytes assessed as cell viability at 15.6 ug/ml after 88 hrs by MTT assay; type: cell-based, Splenocyte; conditions: read-out: Activity
In this section, each of the compounds is paired with its reported viability at 88 h, 15.6 ug/ml.
Reply numerically in %, unit not repeated.

Request: Consider the compound shown here: `O=C(O)c1cc(Br)c(Br)[nH]1` What is its recorded viability at 88 h, 15.6 ug/ml?
Result: 66

As a next step, examine the compound that follows.
Request: Consider the compound shown here: `CC(C)CCC[C@@H](C)[C@H]1CC[C@H]2C3=C(CC[C@]12C)[C@@]1(C)CC[C@H](O)[C@@H](C)[C@@H]1CC3` What is its recorded viability at 88 h, 15.6 ug/ml?
Result: 92
